B1: EPB41L3 (parent)
chain: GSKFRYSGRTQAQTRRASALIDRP

# Variants of: B1
# method-description: protein stability index of a GFP-peptide fusion (GPS, HEK-293T) (PSI 1-6); higher = more stable;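 also: lentivirally expressed fusions sorted by FACS into six bins by GFP to DsRed ratio, PSI derived from sequencing read proportions per bin multiplied by bin number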
# details: c terminus: a fixed tail appended
Would you mind telling me the reported protein stability index of each entry?

Before answering, review these 2 worked examples.
1. GSKFRYSGRTQAQTRRASALIDRL | 2.56
2. GMKFRYSGRTQAQTRRASALIDRP | 2.27

Each variant below has a reported value. Please supply its protein stability index.
1. GSKFRYSGRTQAQTRRASALIDRQ
2. GSKFRYSGRTQAQTRRASALIIRP
3. GSKFRYSGRTQAQTRRASASIDRP
4. GSKFDYSGRTQAQTRRASALIDRP
5. GSKFRYSGRTQATTRRASALIDRP

[2.79, 2.83, 3.46, 3.74, 2.73]

Each variant below has a reported value. Please supply its protein stability index.
1. GSKFRYSGRTQAQTRRASALIERP
2. GSKFRYSYRTQAQTRRASALIDRP
3. GSKFEYSGRTQAQTRRASALIDRP
4. GSKDRYSGRTQAQTRRASALIDRP
5. GSKFRYSGRTQAQTRPASALIDRP
6. GSKFRYSGRTQAQTHRASALIDRP
7. GSKFRYSGRTQAQTRRASALIDMP
8. DSKFRYSGRTQAQTRRASALIDRP

1: 3.72; 2: 2.7; 3: 4.08; 4: 4.17; 5: 3.15; 6: 2.97; 7: 2.41; 8: 3.06

Each variant below has a reported value. Please supply its protein stability index.
1. GSKFRYSGRTQAQTRRASILIDRP
2. GSGFRYSGRTQAQTRRASALIDRP
3. GPKFRYSGRTQAQTRRASALIDRP
4. GSKFRYSGRTQAQTRRASALIDRD
5. GSKFRYSGRTQAITRRASALIDRP
6. GSKGRYSGRTQAQTRRASALIDRP
7. GSKFRYSGRTQAQTRRASALIDRT

3.04
1.94
2.6
3.56
2.9
3.62
3.05

Each variant below has a reported value. Please supply its protein stability index.
1. GSKFRYSGRTQAQTRVASALIDRP
2. ASKFRYSGRTQAQTRRASALIDRP

1: 2.34; 2: 3.02
